Reference source: the supplement of paper PMC10307832

Listing of recorded relative viability by entry.
- Tested on: NCI-H460
- ASSAY PROCEDURE: relative viability (nuclei count vs DMSO), 5 days (fraction); higher = more cells survive
- TEST SETTINGS: first compound 2 µM
ASSAY METRIC: relative viability

INSERT INTO assay_data (molecule, reading) VALUES
  ('Cc1csc(=NC2CCCCC2)n1/N=C/c1ccc(O)c(O)c1O [MIM1] + O=C(CCCCCCC(=O)Nc1ccccc1)NO [Vorinostat] (partner 1 µM)', 0.411),
  ('Cc1csc(=NC2CCCCC2)n1/N=C/c1ccc(O)c(O)c1O [MIM1] + O=C(c1cc(Cc2n[nH]c(=O)c3ccccc23)ccc1F)N1CCN(C(=O)C2CC2)CC1 [Olaparib] (partner 8 µM)', 0.195),
  ('Cc1csc(=NC2CCCCC2)n1/N=C/c1ccc(O)c(O)c1O [MIM1] + CS(=O)(=O)CCNCc1ccc(-c2ccc3ncnc(Nc4ccc(OCc5cccc(F)c5)c(Cl)c4)c3c2)o1 [Lapatinib] (partner 2 µM)', 0.351),
  ('CN1CCN(CCOc2cc(OC3CCOCC3)c3c(Nc4c(Cl)ccc5c4OCO5)ncnc3c2)CC1 [Saracatinib] + N=C(N)NC(=N)NCCc1ccccc1 [Phenformin] (partner 250 µM)', 0.435),
  ('Cc1csc(=NC2CCCCC2)n1/N=C/c1ccc(O)c(O)c1O [MIM1] + CCNC(=O)c1noc(-c2cc(C(C)C)c(O)cc2O)c1-c1ccc(CN2CCOCC2)cc1 [Luminespib] (partner 0.01 µM)', 0.0432);

---

# relative viability annotations
- System: NCI-H2023
- ASSAY PROCEDURE: relative viability (nuclei count vs DMSO), 5 days (fraction); higher = more cells survive
- TEST SETTINGS: first compound 20 µM
ASSAY METRIC: relative viability

INSERT INTO results (compound, reading) VALUES
  ('Cc1csc(=NC2CCCCC2)n1/N=C/c1ccc(O)c(O)c1O [MIM1] + CC(C)C[C@H](NC(=O)[C@H](Cc1ccccc1)NC(=O)c1cnccn1)B(O)O [Bortezomib] (partner 0.002 µM)', 0.0682),
  ('Cc1csc(=NC2CCCCC2)n1/N=C/c1ccc(O)c(O)c1O [MIM1] + C[C@]1(O)C[C@@H](c2nc(-c3ccc4ccc(-c5ccccc5)nc4c3)c3c(N)nccn32)C1 [Linsitinib] (partner 1 µM)', 0.443),
  ('Cc1csc(=NC2CCCCC2)n1/N=C/c1ccc(O)c(O)c1O [MIM1] + Cc1cc(Nc2cc(N3CCN(C)CC3)nc(Sc3ccc(NC(=O)C4CC4)cc3)n2)n[nH]1 [Tozasertib] (partner 0.1 µM)', 0.109),
  ('Cc1csc(=NC2CCCCC2)n1/N=C/c1ccc(O)c(O)c1O [MIM1] + CS(=O)(=O)N1CCN(Cc2cc3nc(-c4cccc5[nH]ncc45)nc(N4CCOCC4)c3s2)CC1 [Pictilisib] (partner 1 µM)', 0.067),
  ('Cc1csc(=NC2CCCCC2)n1/N=C/c1ccc(O)c(O)c1O [MIM1] + O=C(c1cc(Cc2n[nH]c(=O)c3ccccc23)ccc1F)N1CCN(C(=O)C2CC2)CC1 [Olaparib] (partner 8 µM)', 0.0641);

---

- Tested on: RERF-LC-KJ
- ASSAY PROCEDURE: relative viability (nuclei count vs DMSO), 5 days (fraction); higher = more cells survive
- TEST SETTINGS: first compound 0.001 µM
// boundary case: relative viability equal to 0.5 maps to NO; strictly smaller maps to YES

INSERT INTO results (compound, assigned_category) VALUES
  ('Cc1cn(-c2cc(NC(=O)c3ccc(C)c(Nc4nccc(-c5cccnc5)n4)c3)cc(C(F)(F)F)c2)cn1 [Nilotinib] + Cc1nc(NC(=O)N2CCC[C@H]2C(N)=O)sc1-c1ccnc(C(C)(C)C(F)(F)F)c1 [Alpelisib] (partner 2 µM)', 'NO'),
  ('Cc1cn(-c2cc(NC(=O)c3ccc(C)c(Nc4nccc(-c5cccnc5)n4)c3)cc(C(F)(F)F)c2)cn1 [Nilotinib] + N=C(N)NC(=N)NCCc1ccccc1 [Phenformin] (partner 250 µM)', 'YES'),
  ('Cc1cn(-c2cc(NC(=O)c3ccc(C)c(Nc4nccc(-c5cccnc5)n4)c3)cc(C(F)(F)F)c2)cn1 [Nilotinib] + Nc1ncn([C@H]2C[C@H](O)[C@@H](CO)O2)c(=O)n1 [Decitabine] (partner 2 µM)', 'NO'),
  ('Cc1cn(-c2cc(NC(=O)c3ccc(C)c(Nc4nccc(-c5cccnc5)n4)c3)cc(C(F)(F)F)c2)cn1 [Nilotinib] + CS(=O)(=O)CCNCc1ccc(-c2ccc3ncnc(Nc4ccc(OCc5cccc(F)c5)c(Cl)c4)c3c2)o1 [Lapatinib] (partner 2 µM)', 'NO');
